System: JeKo-1 cells
test_description: Tumor cell growth inhibition by MTS method, JeKo-1
Assay type: cell-based
conditions_used: Homo sapiens, JeKo-1, 120 h, 5 days of culture
Each record here notes measured pIC50.
Interpret pIC50 as the negative base-10 log of the concentration measured in mol/L.

>  <smiles_entry>
Cc1ccc(C(=O)Nc2cccc(C(F)(F)F)c2)cc1Nc1nc(-c2cccc(Cl)c2)nc2c1cnn2C

>  <result_value>
5.31

$$$$
>  <smiles_entry>
Cc1ccnc(Nc2nc(-c3cccc(NC(=O)c4cccc(C(F)(F)F)c4)c3)nc3ccsc23)c1

>  <result_value>
5.59

$$$$
>  <smiles_entry>
Cc1ccc(C(=O)Nc2cccc(C(F)(F)F)c2)cc1Nc1nc(-c2cccnc2)nc2c1ncn2C

>  <result_value>
5.15

$$$$
>  <smiles_entry>
Cc1ccc(NC(=O)c2cccc(C(F)(F)F)c2)cc1Nc1cc(-c2ccncc2)c2cc[nH]c2n1

>  <result_value>
5.21

$$$$
>  <smiles_entry>
Cc1ccc(NC(=O)c2cccc(C(F)(F)F)c2)cc1Nc1cc(-c2cccnc2)nc2c1ccn2C

>  <result_value>
5.56

$$$$
>  <smiles_entry>
Cc1ccc(C(=O)Nc2cccc(C(F)(F)F)c2)cc1Nc1cc(-c2cccnc2)nc2sccc12

>  <result_value>
5.50

$$$$

QUERY: Write down the reported pIC50 of `Cc1ccc(C(=O)Nc2cccc(C(F)(F)F)c2)cc1Nc1nc(-c2cccnc2)nc2cc[nH]c12` , test system: JeKo-1 cells.
RESULT: 5.51

QUERY: Write down the reported pIC50 of `Cc1ccc(NC(=O)c2cccc(C(F)(F)F)c2)cc1Nc1cc(-c2cccnc2)c2cc[nH]c2n1` , test system: JeKo-1 cells.
RESULT: 5.96

QUERY: Write down the reported pIC50 of `Cc1ccc(C(=O)Nc2cccc(C(F)(F)F)c2)cc1Nc1nc(-c2cccnc2)nc2c1cnn2C` , test system: JeKo-1 cells.
RESULT: 6.03

QUERY: Write down the reported pIC50 of `Cc1ccc(NC(=S)Nc2cccc(C(F)(F)F)c2)cc1Nc1nc(-c2cccnc2)c2[nH]ccc2n1` , test system: JeKo-1 cells.
RESULT: 5.21

QUERY: Write down the reported pIC50 of `Cc1ccc(NC(=O)c2cccc(C(F)(F)F)c2)cc1Nc1cc(-c2cccnc2)nc2[nH]ccc12` , test system: JeKo-1 cells.
RESULT: 5.69

Origin of values: patent US11352354B2
